Measured TGI, listed per entry.
- Test system: NCI-H226 lung
- assayText: NCI tumour cell line growth inhibition, 48 h

// known answers, use as guide
INSERT INTO assay_data (molecule, recordedvalue) VALUES
  ('Cc1ccc(S(=O)(=O)OC[C@@H]2CO2)cc1', '> 100 µM'),
  ('CC(C)=CCc1c2c(c3occ(-c4ccc(O)cc4)c(=O)c3c1O)CC(C(C)(C)O)O2 (stereo not given)', '43 µM'),
  ('CC1(C(=O)O)CCC[C@@]2(C)C1CC[C@@]1(C)c3cocc3CCC21 (stereo not given in full)', '> 100 µM'),
  ('CC(C)=CCC\C(C)=C/C=C/C(C)=C\C=C\C(C)=C/C=C/C=C(C)\C=C\C=C(C)/C=C/C=C(/C)CCC=C(C)C', '> 100 µM'),
  ('Cc1ccc([N+](=O)[O-])cc1NC1=NCCO1', '> 100 µM'),
  ('Nc1nc(SCCc2ccccc2)c2[nH]cnc2n1', '> 100 µM'),
  ('O=C(O)CCC(NC(=O)c1ccc(Nc2nc3ccccc3nc2-c2cccs2)cc1)C(=O)O (stereo not given)', '> 100 µM'),
  ('COC(=O)c1ccccc1NC(=O)C(=O)Cc1nc2c3c(ccc2[nH]c1=O)C(=O)c1ccccc1C3=O', '16.7 µM'),
  ('CN1C(=O)C2CCC(=O)N2c2cccnc21 (stereo not given)', '> 100 µM');

Now examine the next entry.
Please report TGI for the following molecule: O=[N+]([O-])c1cccc(-c2csc(NNC3=NC/C(=C/c4ccc5c(c4)OCO5)S3)n2)c1
43.3 µM

* * *

Known TGI of a selection of compounds
- System: NCI-H460 lung
- assayText: NCI tumour cell line growth inhibition, 48 h
Where a SMILES comes first, the peptide text is derived from it. [ ]: non-standard residue; d: D form. The star is where a group is joined. NMeAc5c = CNC1(C(=O)O)CCCC1; Boc = CC(C)(C)OC(=O)*; OBn = c1ccc(CO*)cc1
Your answer is read as µM, so omit the unit and give the number.

INSERT INTO results (compound, testtarget, recordedvalue) VALUES
  ('O=C(Nc1ccc(-n2ccc3c(NC(=O)c4ccccc4)nccc32)cc1)c1ccc(Cl)c(C(F)(F)F)c1', 'NCI-H460 lung', 1.2),
  ('CN(C)c1ccc(/C=C\C2=[N+](C)c3ccccc3C2(C)C)cc1', 'NCI-H460 lung', 7.16),
  ('Cc1ccccc1C(=O)N1CCc2c([nH]c3ccccc23)C1', 'NCI-H460 lung', 53.4),
  ('CN(C(=O)C(Cc1ccccc1)NC(=O)OC(C)(C)C)C1(C(=O)NC(Cc2ccccc2)C(=O)OCc2ccccc2)CCCC1 (stereo not drawn) (Boc-Phe-[NMeAc5c]-Phe-OBn; configuration not given here)', 'NCI-H460 lung', 59.8);

Using the record for COC(=O)C1SC(SC)=NC12c1ccccc1Nc1ccccc12 (centres undefined) , state its measured TGI.
56.1

* * *

- Tested on: KM12 colon
- assayText: NCI tumour cell line growth inhibition, 48 h; in the data active = GI50 below about 0.43 µM; inactive = the rest
Write down the outcome that applies. Available outcomes: active, inactive

Past entries and their recorded results:
INSERT INTO measurements (molecule, classlabel) VALUES
  ('OC1CSSC1Cn1cnc2c(Nc3ccc(OCc4cccc(F)c4)c(Cl)c3)ncnc21 (stereo not given)', 'active'),
  ('C=C(C)C(OC)C(O)CC1(C)CC(O)CC(C)(C2CCC3OC(C4(C)CCC(Br)C(C)(C)O4)CCC3(C)O2)O1 (stereo not given)', 'inactive'),
  ('Nc1nc(-n2c(-c3ccccc3)nc3c(Br)cc(Br)cc3c2=O)nnc1-c1cccc(Cl)c1Cl', 'inactive'),
  ('Cc1ccc2c(C)c3c(ccc4ccccc43)c[n+]2c1', 'inactive');

How was CCC(=O)[C@H](C)[C@@H](OC(=O)[C@H](C)CC)[C@H](C)[C@H]1OC(CC)=C(C)C(=O)[C@@H]1C classified in this test?
inactive

* * *

- Test system: OVCAR-5 ovarian
- assayText: NCI tumour cell line growth inhibition, 48 h
Listing of recorded TGI by entry.
Unit µM implied. Number only.

INSERT INTO results (compound, testtarget, assayreadout, unitlabel, recordedvalue) VALUES
  ('O=C1CSC(c2ccc(Cl)cc2)N1c1ccc(Oc2ccc(Cl)cc2)c(Cl)c1 (stereo not given)', 'OVCAR-5 ovarian', 'TGI', 'µM', 29.6),
  ('Cc1cn2c(/C=N/N=C(N)N)c(-c3cccc([N+](=O)[O-])c3)nc2s1', 'OVCAR-5 ovarian', 'TGI', 'µM', 5.5),
  ('NS(=O)(=O)OC[C@@H]1C[C@@H](n2ccc3c(NC4CCc5ccccc54)ncnc32)C[C@@H]1O (stereo not given in full)', 'OVCAR-5 ovarian', 'TGI', 'µM', 96.9);

Switching to the query record.
Please respond with reported TGI (system OVCAR-5 ovarian) for O=C(NC(=O)c1ccccc1[N+](=O)[O-])Nc1ccc(Oc2ncc(Br)cn2)c(Cl)c1 .
0.0522

* * *

- Tested on: SN12C renal
- assayText: NCI tumour cell line growth inhibition, 48 h; in the data active = GI50 below about 0.43 µM; inactive = the rest
The reply should name one outcome from active, inactive

Here are 4 molecules together with their reported answers.
INSERT INTO results (mol, classlabel) VALUES
  ('Cc1ccc(CN2CCC(C(=O)Nc3ccc(-c4cc5ccccc5[nH]4)cc3)CC2)o1', 'inactive'),
  ('CCN1/C(=C\c2cc[n+](CC)c3ccccc23)C=Cc2ccccc21', 'active'),
  ('COc1cnc2c(c1)C(=O)c1c-2n(CCCN2CCOCC2)c(=O)c2cc(F)ccc12', 'active'),
  ('Cc1nc2sccn2c1-c1csc(Nc2ccccc2Cl)n1', 'inactive');

Next, consider the following molecule.
Given COc1cc(/C=N\NC(=O)CN2CCN(c3cc4c(cc3F)c(=O)c(C(=O)N/N=C/c3cc(OC)c(OC)c(OC)c3)cn4C3CC3)CC2)cc(OC)c1OC , state the outcome it received in this test.
active

* * *

- Tested on: RXF-631 renal
- assayText: NCI tumour cell line growth inhibition, 48 h
assayReadout: TGI

Worked cases, answers included:
INSERT INTO measurements (compound, recordedvalue) VALUES
  ('C=C(C)C(=O)OC1C/C(CO)=C\C(O)C/C(C)=C/C2OC(=O)C(=C)C21 (centres undefined)', '36.7 µM'),
  ('COc1cc2ccnc([C@@H](OC(=O)c3ccccc3)c3ccc(OC)c(OC)c3OC)c2cc1OC', '> 100 µM'),
  ('Cc1cc(N(CCC#N)CCC#N)ccc1N=Nc1ccc(S(N)(=O)=O)cc1', '> 100 µM');

Look up and state reported TGI for CCN(CC)CCSc1c2ccccc2nc2cc(NCC(=O)Nc3ccccc3-c3ccccc3NC(=O)CNc3ccc4c(SCCN(CC)CC)c5ccccc5nc4c3)ccc12
> 100 µM

* * *

- Test system: MDA-MB-231 breast
- assayText: NCI tumour cell line growth inhibition, 48 h
Label TRUE when TGI is at or above 3 µM; otherwise label FALSE.

Known results for compounds:
INSERT INTO assay_data (compound, testtarget, classlabel) VALUES
  ('C=CCN1C[C@H](C)N([C@H](c2ccc(C(=O)NC(CC)CC)cc2)c2cccc(OC)c2)C[C@H]1C', 'MDA-MB-231 breast', 'TRUE'),
  ('Nc1ccccc1C#C/C=C\C#Cc1ccccc1OC(F)(F)F', 'MDA-MB-231 breast', 'TRUE'),
  ('Cc1cn2c(/C=N/N=C(N)N)c(-c3cccc([N+](=O)[O-])c3)nc2s1', 'MDA-MB-231 breast', 'FALSE');

In plain terms: is recorded TGI at least 3 µM for C[C@]12CCC(O)CC1=CC[C@@H]1[C@@H]2CC[C@]2(C)C(=O)[C@H](n3ccnc3)C[C@@H]12 (some centres undefined) ?
TRUE

Hi, just wondering whether COc1cnc2c(c1)C(=O)c1c-2n(CCCN2CCOCC2)c(=O)c2cc(F)ccc12 shows TGI of 3 µM or higher.
TRUE

Does the reported TGI for CCN1CCN(Cc2ccc(NC(=O)c3cccc(C#Cc4cccc5[nH]nc(N)c45)c3)cc2C(F)(F)F)CC1 fall at or above the 3 µM mark?
FALSE

Threshold query (TGI >= 3 µM) on N#CC1(C#N)N[C@@H](c2ccsc2)[C@H]2C(=O)N(c3ccccc3)C(=O)[C@H]21
TRUE

Check this compound for TGI at or above 3 µM: COc1cc(/C=N\NC(=O)CN2CCN(c3cc4c(cc3F)c(=O)c(C(=O)N/N=C/c3cc(OC)c(OC)c(OC)c3)cn4C3CC3)CC2)cc(OC)c1OC
FALSE

Hi team, for CCOC(=O)/C=C/CC(C)(C)CCOC(C)=O , is the recorded TGI at or above 3 µM?
TRUE

* * *

- Test system: NCI-H23 lung
- assayText: NCI tumour cell line growth inhibition, 48 h
Where a SMILES comes first, the peptide text is derived from it. [ ]: non-standard residue; d: D form. The star is where a group is joined. NMeAc5c = CNC1(C(=O)O)CCCC1; Boc = CC(C)(C)OC(=O)*; OBn = c1ccc(CO*)cc1
assayReadout: TGI

Sample records with TGI:
INSERT INTO results (compound, testtarget, assayreadout, recordedvalue) VALUES
  ('CN(C(=O)C(Cc1ccccc1)NC(=O)OC(C)(C)C)C1(C(=O)NC(Cc2ccccc2)C(=O)OCc2ccccc2)CCCC1 (stereo not drawn) (Boc-Phe-[NMeAc5c]-Phe-OBn; configuration not given here)', 'NCI-H23 lung', 'TGI', '> 100 µM'),
  ('NC(=O)NCCCC(NC(=O)OCCCCn1ccc(=O)[nH]c1=O)C(=O)O (configuration not stated)', 'NCI-H23 lung', 'TGI', '> 100 µM'),
  ('COC([CH2][Hg][n]1cnc2c1c(=O)n(C)c(=O)n2C)CN1C(=O)c2ccccc2S1(=O)=O (configuration not stated)', 'NCI-H23 lung', 'TGI', '> 100 µM'),
  ('COc1cccc(C(=O)O[C@H]2[C@@H]3[C@]4(OC(C)=O)CO[C@@H]4C[C@H](O)[C@@]3(C)C(=O)[C@H](OC(C)=O)C3=C(C)[C@@H](OC(=O)[C@H](O)[C@@H](NC(=O)OC(C)(C)C)c4ccco4)C[C@]2(O)C3(C)C)c1', 'NCI-H23 lung', 'TGI', '> 37.5 µM'),
  ('COc1ccccc1N1C(=O)C2c3[nH]c4ccccc4c3C3CCC(C(C)(C)C)CC3C2C1=O (configuration not stated)', 'NCI-H23 lung', 'TGI', '> 100 µM'),
  ('NS(=O)(=O)OC[C@@H]1C[C@@H](n2ccc3c(NC4CCc5ccccc54)ncnc32)C[C@@H]1O (some centres not stated)', 'NCI-H23 lung', 'TGI', '46.1 µM');

Provide measured TGI value, entry: CCCCCCc1cc2cc(-c3csc(CC#N)n3)c(=O)oc2cc1O
> 100 µM
